Numbers sourced from patent US10238623B2.

tested on: normal human blood cells; assay: MTT assay, normal human blood cells, 72 h; assay type: cell-based; conditions: Homo sapiens, 72 h, Normal Blood Cell, Overall, MTT, read-out: IC50
Attribute measured: pIC50
The value called pIC50 is obtained by taking minus log10 of the concentration in mol/L.

Looking up CC(C)[C@]12O[C@H]1[C@@H]1O[C@]13[C@]1(O[C@H]1C[C@H]1C4=C(CC[C@@]13C)C(=O)OC4)[C@@H]2O [TPL, Triptolide] , I found its pIC50 recorded as 7.66

====

system: Jurkat; assay: MTT growth inhibition, Jurkat cells, 72 h; type: cell-based, human; conditions: Homo sapiens; Jurkat, MTT, 72 hours; read-out: IC50
Attribute measured: IC50 (nM)
Respond with the bare value in nM.

Looking up CC(C)[C@]12O[C@H]1[C@@H]1O[C@]13[C@]1(O[C@H]1C[C@H]1C4=C(CC[C@@]13C)C(=O)OC4)[C@@H]2O [TPL, Triptolide] , I found its IC50 recorded as 33.8
